Reported GI50 values for a set of molecules
# Test system: MCF-7 (breast carcinoma)
# Protocol: Calcein AM cytotoxicity assay, MCF7
# Type: cell-based
# Details: 72 hours incubation

Examples from the recorded data:
[Q] Consider the molecule "O=P(O)(O)OC[C@H]1O[C@@H](n2cnc3c(NCc4cc(F)ccc4O)ncnc32)[C@H](O)[C@@H]1O" and give its measured GI50.
[A] 16 µM

[Q] # repeat for "O=P(O)(O)OC[C@H]1O[C@@H](n2cnc3c(NCc4cccc(O)c4)ncnc32)[C@H](O)[C@@H]1O"
[A] > 167 µM

[Q] # repeat for "Cc1cccc(CNc2ncnc3c2ncn3[C@@H]2O[C@H](COP(=O)(O)O)[C@@H](O)[C@H]2O)c1"
[A] > 167 µM

[Q] # repeat for "O=P(O)(O)OC[C@H]1O[C@@H](n2cnc3c(NCc4ccccc4O)ncnc32)[C@H](O)[C@@H]1O"
[A] 10.5 µM

[Q] # repeat for "O=P(O)(O)OC[C@H]1O[C@@H](n2cnc3c(NCc4cc(Cl)ccc4O)ncnc32)[C@H](O)[C@@H]1O"
[A] 18 µM

[Q] # repeat for "O=P(O)(O)OC[C@H]1O[C@@H](n2cnc3c(NCc4ccccc4Br)ncnc32)[C@H](O)[C@@H]1O"
[A] > 167 µM

Others:
[Q] Consider the molecule "O=P(O)(O)OC[C@H]1O[C@@H](n2cnc3c(NCc4ccc(F)cc4Cl)ncnc32)[C@H](O)[C@@H]1O" and give its measured GI50.
[A] > 167 µM

[Q] # repeat for "O=P(O)(O)OC[C@H]1O[C@@H](n2cnc3c(NCc4ccc(Cl)cc4)ncnc32)[C@H](O)[C@@H]1O"
[A] > 167 µM

[Q] # repeat for "O=P(O)(O)OC[C@H]1O[C@@H](n2cnc3c(NCc4ccc(F)c(Cl)c4)ncnc32)[C@H](O)[C@@H]1O"
[A] > 167 µM

###

# Tested on: MCF-7 (breast carcinoma)
# Protocol: Calcein AM cytotoxicity assay, MCF7
# Assay type: cell-based
# Details: 72 hours incubation
Reported GI50 values for a set of compounds

[Q] Consider the compound "COc1cccc(CNc2ncnc3c2ncn3[C@@H]2O[C@H](COP(=O)(O)O)[C@@H](O)[C@H]2O)c1" and give its measured GI50.
[A] > 167 µM

[Q] # repeat for "O=P(O)(O)OC[C@H]1O[C@@H](n2cnc3c(NCc4cccc(F)c4)ncnc32)[C@H](O)[C@@H]1O"
[A] 16.6 µM

[Q] # repeat for "COc1ccc(CNc2ncnc3c2ncn3[C@@H]2O[C@H](COP(=O)(O)O)[C@@H](O)[C@H]2O)c(OC)c1"
[A] > 167 µM

[Q] # repeat for "O=P(O)(O)OC[C@H]1O[C@@H](n2cnc3c(NCc4cccc(Br)c4)ncnc32)[C@H](O)[C@@H]1O"
[A] > 167 µM

[Q] # repeat for "COc1cccc(CNc2ncnc3c2ncn3[C@@H]2O[C@H](COP(=O)(O)O)[C@@H](O)[C@H]2O)c1O"
[A] 30.4 µM

[Q] # repeat for "O=P(O)(O)OC[C@H]1O[C@@H](n2cnc3c(NCc4ccc(F)c(F)c4F)ncnc32)[C@H](O)[C@@H]1O"
[A] > 167 µM

Others:
[Q] Consider the compound "COc1ccc(CNc2ncnc3c2ncn3[C@@H]2O[C@H](COP(=O)(O)O)[C@@H](O)[C@H]2O)cc1O" and give its measured GI50.
[A] > 167 µM

[Q] # repeat for "COc1cc(CNc2ncnc3c2ncn3[C@@H]2O[C@H](COP(=O)(O)O)[C@@H](O)[C@H]2O)cc(OC)c1"
[A] > 167 µM

###

Reported GI50 values for a set of compounds
# Test system: MCF-7 (breast carcinoma)
# Protocol: Calcein AM cytotoxicity assay, MCF7
# Assay type: cell-based
# Details: 72 hours incubation

Examples from the recorded data:
[Q] Consider the compound C/C(=C\CNc1ncnc2c1ncn2[C@@H]1O[C@H](CO)[C@@H](O)[C@H]1O)CO [zeatin riboside, reference compound] and give its measured GI50.
[A] > 167 µM

[Q] # repeat for O=P(O)(O)OC[C@H]1O[C@@H](n2cnc3c(NCc4ccc(O)cc4)ncnc32)[C@H](O)[C@@H]1O [Compound 23]
[A] > 167 µM

[Q] # repeat for O=P(O)(O)OC[C@H]1O[C@@H](n2cnc3c(NCc4c(F)ccc(F)c4F)ncnc32)[C@H](O)[C@@H]1O [Compound 40]
[A] > 167 µM

[Q] # repeat for O=P(O)(O)OC[C@H]1O[C@@H](n2cnc3c(NCc4cccc(Cl)c4)ncnc32)[C@H](O)[C@@H]1O [Compound 5]
[A] > 167 µM

Others:
[Q] Consider the compound COc1ccc(O)c(CNc2ncnc3c2ncn3[C@@H]2O[C@H](COP(=O)(O)O)[C@@H](O)[C@H]2O)c1 [Compound 29] and give its measured GI50.
[A] 21 µM

[Q] # repeat for O=P(O)(O)OC[C@H]1O[C@@H](n2cnc3c(NCc4ccccc4Cl)ncnc32)[C@H](O)[C@@H]1O [Compound 4]
[A] > 167 µM
